biological target: BuChE from human serum (Homo sapiens, UniProt P06276); construct: The assay solution consisted of 0.01 units BuChE from human serum; from tissue; host or cells: human serum; test: Butyrylcholinesterase (BuChE) inhibition (from human serum); format: biochemical
Sequence (P06276 29-602): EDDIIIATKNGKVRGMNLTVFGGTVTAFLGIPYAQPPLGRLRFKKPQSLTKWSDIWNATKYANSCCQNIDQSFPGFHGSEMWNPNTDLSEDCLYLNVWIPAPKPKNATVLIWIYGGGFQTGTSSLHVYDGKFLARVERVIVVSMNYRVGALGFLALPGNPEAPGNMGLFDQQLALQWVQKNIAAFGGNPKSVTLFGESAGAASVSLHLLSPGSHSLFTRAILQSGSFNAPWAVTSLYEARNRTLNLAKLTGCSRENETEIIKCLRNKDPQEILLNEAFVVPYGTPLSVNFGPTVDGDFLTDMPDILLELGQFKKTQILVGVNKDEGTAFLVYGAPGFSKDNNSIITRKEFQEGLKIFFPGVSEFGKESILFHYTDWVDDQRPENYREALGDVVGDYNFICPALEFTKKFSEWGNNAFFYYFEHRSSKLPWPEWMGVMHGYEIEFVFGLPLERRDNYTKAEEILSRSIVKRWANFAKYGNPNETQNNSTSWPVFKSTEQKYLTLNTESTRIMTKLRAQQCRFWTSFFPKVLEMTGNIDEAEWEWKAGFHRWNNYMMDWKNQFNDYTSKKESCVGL
pIC50: −log10 of the molar value.
measurement.type: pIC50

compound | assay.system | value
CCn1c(=NCCCCCCNc2c3c(nc4ccccc24)CCCC3)sn(C(C)C)c1=O [Compound 18] | BuChE from human serum (Homo sapiens, UniProt P06276) | 6.00

---

Molecular target: AChE from N2A cells (Mus musculus)
Construct: The assay solution consisted of AChE from neuronal cells; endogenous in cells
Sequence (P21836 32-614): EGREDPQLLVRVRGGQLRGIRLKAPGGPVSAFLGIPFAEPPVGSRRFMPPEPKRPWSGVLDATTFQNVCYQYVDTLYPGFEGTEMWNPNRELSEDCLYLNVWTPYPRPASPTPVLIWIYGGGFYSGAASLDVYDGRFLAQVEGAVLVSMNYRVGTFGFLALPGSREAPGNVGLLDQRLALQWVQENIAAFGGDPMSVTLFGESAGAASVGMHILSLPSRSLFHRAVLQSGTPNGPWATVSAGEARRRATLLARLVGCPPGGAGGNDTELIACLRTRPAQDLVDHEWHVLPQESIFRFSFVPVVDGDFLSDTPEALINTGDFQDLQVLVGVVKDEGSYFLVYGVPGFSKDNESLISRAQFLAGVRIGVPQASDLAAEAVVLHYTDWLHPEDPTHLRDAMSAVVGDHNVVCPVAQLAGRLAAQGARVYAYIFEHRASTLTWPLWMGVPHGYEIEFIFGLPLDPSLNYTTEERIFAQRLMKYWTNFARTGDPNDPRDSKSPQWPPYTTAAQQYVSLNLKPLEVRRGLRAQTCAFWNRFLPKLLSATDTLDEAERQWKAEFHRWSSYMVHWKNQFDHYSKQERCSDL
Test: Neuronal AChE activity, enzyme preparation from N2A cells
Settings: pH 8, 0.5 mM acetylthiocholine iodide, read-out: IC50 AChE N2A (rat neuroblastoma)
Protocol: Acetylcholinesterase (AChE) enzyme preparations were obtained from SH—SY5Y, SK—N—SH and N2A cells. CELL CULTURE: The human neuroblastoma cell line SH—SY5Y was cultured in minimum essential medium, Han's F12 medium, supplemented with 10% fetal bovine serum and 1% penicillin/streptomycin, and grown in a 5% CO2 humidified incubator at 37° C. […]
pIC50: −log10 of the molar value.
measurement.type: pIC50

compound | assay.system | value
COc1cc2c(cc1OC)C(=O)C(CNCCCCCCCNc1c3c(nc4ccccc14)CCCC3)C2 (stereo not shown) | AChE from N2A cells (Mus musculus) | 6.68

---

system: human neuroblastoma cell line SH—SY5Y; assay: Toxicity measurement (LDH) in SH-SY5Y cells; assay type: cell-based; conditions: 24 hours exposure

input.smiles | Toxicity
Clc1ccc2c(NCCCCCCCNc3c4ccccc4nc4ccccc34)c3c(nc2c1)CCCC3 | 0.5 µM
CCn1c(=NCCCCCCCCNc2c3c(nc4ccccc24)CCCC3)sn(C(C)C)c1=O | >100 µM
O=C1c2ccccc2C(=O)N1CCCCCCCCCNc1c2ccccc2nc2ccccc12 | >100 µM
O=C1c2ccccc2C(=O)N1CCCCCCCNc1c2c(nc3ccccc13)CCCC2 | >100 µM
O=C(CN1C(=O)c2ccccc2C1=O)NCCCCCCNc1c2c(nc3cc(Cl)ccc13)CCCC2 | >100 µM
CN(CCCNc1c2c(nc3ccccc13)CCCC2)CCCNc1c2ccccc2nc2ccccc12 | >100 µM
CCCn1s/c(=N\CCCCCCCNc2c3c(nc4ccccc24)CCCC3)n(CC)c1=O | 50 µM
CCn1c(=NCCCCCCNc2c3c(nc4ccccc24)CCCC3)sn(C(C)C)c1=O | >10 µM

---

Molecular target: AChE from bovine erythrocytes (Bos taurus, UniProt P23795)
Construct: 0.02 units AChE (Sigma Chemical Co. from bovine erythrocytes); purchased Sigma Chemical Co; host or cells: bovine erythrocytes
Sequence (P23795 31-614 isoform P23795-2 limits assumed): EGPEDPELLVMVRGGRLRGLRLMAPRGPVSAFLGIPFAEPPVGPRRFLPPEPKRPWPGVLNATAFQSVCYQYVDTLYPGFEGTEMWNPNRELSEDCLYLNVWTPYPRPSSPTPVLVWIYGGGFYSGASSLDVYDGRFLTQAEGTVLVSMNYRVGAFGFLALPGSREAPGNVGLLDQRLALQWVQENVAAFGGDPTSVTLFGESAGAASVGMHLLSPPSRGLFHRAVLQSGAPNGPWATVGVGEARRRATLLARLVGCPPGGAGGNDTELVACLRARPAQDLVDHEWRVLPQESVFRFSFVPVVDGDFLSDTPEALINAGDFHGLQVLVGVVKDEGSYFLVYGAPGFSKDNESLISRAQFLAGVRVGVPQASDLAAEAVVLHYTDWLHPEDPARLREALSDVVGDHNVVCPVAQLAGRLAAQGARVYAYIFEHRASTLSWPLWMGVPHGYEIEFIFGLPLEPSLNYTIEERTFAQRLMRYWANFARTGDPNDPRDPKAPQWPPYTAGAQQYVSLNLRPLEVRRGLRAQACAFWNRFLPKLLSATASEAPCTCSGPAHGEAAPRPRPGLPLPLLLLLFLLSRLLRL
Assay: Acetylcholinesterase (AChE) inhibition (from bovine erythrocytes), Ellman method at 30° C., Digiscan 340T
Format: biochemical
Conditions: bovine erythrocytes AChE, 30° C., 5 min preincubation; read-out: IC50 AchE
Procedure: Acetylcholinesterase (AChE) Inhibition (from Bovine Erythrocytes) AChE inhibitory activity was evaluated at 30° C. by the colorimetric method reported by Ellman [Ellman, G. L.; Courtney, K. D.; Andres, B.; Featherstone, R. M. Biochem. Pharmacol. 1961, 7, 88-95]. […] The absorbance changes at 405 nm were recorded for 5 min with a microplate reader Digiscan 340T, the reaction rates were compared, and the percent inhibition due to the presence of test compounds was calculated. […]
Categories are assigned from the measured IC50 using these intervals: lower band = under 3 nM, central band = from 3 nM up to 400 nM, upper band = 400 nM and over

compound | discrete.label
O=C1c2ccccc2C(=O)N1CCCCCCNc1c2ccccc2nc2ccccc12 [Compound 6] | upper band
CN(CCCNc1c2c(nc3ccccc13)CCCC2)CCCNc1c2ccccc2nc2ccccc12 [Compound 21] | central band
O=C1c2ccccc2C(=O)N1CCCCCCCCNc1c2ccccc2nc2ccccc12 [Compound 8] | upper band
CCn1c(=NCCCCCCCCNc2c3c(nc4ccccc24)CCCC3)sn(C(C)C)c1=O [Compound 17] | central band
CN(CCCNc1c2c(nc3cc(Cl)ccc13)CCCC2)CCCNc1c2c(nc3cc(Cl)ccc13)CCCC2 [Compound 19] | lower band
CCCn1s/c(=N\CCCCCCCNc2c3c(nc4ccccc24)CCCC3)n(CC)c1=O [Compound 16] | upper band
O=C1c2ccccc2C(=O)N1CCCCCCCCCNc1c2ccccc2nc2ccccc12 [Compound 9] | lower band
O=C1c2ccccc2C(=O)N1CCCCCCCNc1c2ccccc2nc2ccccc12 [Compound 7] | upper band
Clc1ccc2c(NCCCCCCCNc3c4ccccc4nc4ccccc34)c3c(nc2c1)CCCC3 [Compound 23] | lower band
O=C1c2ccccc2C(=O)N1CCCCCCCCNc1c2c(nc3ccccc13)CCCC2 [Compound 5] | central band
Clc1ccc2c(NCCCCCCCCNc3c4ccccc4nc4ccccc34)c3c(nc2c1)CCCC3 [Compound 24] | lower band
O=C(CN1C(=O)c2ccccc2C1=O)NCCCCCCNc1c2c(nc3cc(Cl)ccc13)CCCC2 [Compound 12] | central band
O=C1c2ccccc2C(=O)N1CCCCCCCNc1c2c(nc3ccccc13)CCCC2 [Compound 4] | upper band
O=C(CN1C(=O)c2ccccc2C1=O)NCCCCCCCNc1c2c(nc3cc(Cl)ccc13)CCCC2 [Compound 10] | central band
